Cited source: the Deep4Chem optical property database

Listed below: emission maximum values for each entry.
# ASSAY_OVERVIEW: solvent given as SMILES
# RUN_CONDITIONS: in CC#N
READOUT_LABEL: emission maximum (nm)

INSERT INTO assay_data (smiles_str, observed) VALUES
  ('C(=C\c1nc(-c2ccccc2)c2ccccn12)/c1nc(-c2ccccc2)c2ccccn12', 491),
  ('COc1ccc(C2=CC(c3cc(OC)cc(OC)c3)=[O+][B-](F)(F)O2)cc1', 587.1),
  ('CCN(CC)c1ccc(/C=N/c2cc3ccccc3cc2/N=C/c2ccc(N(CC)CC)cc2O)c(O)c1', 512),
  ('CN(C)C1=Nc2cccc3cccc1c23', 589),
  ('COc1ccc([C@@H]2C[C@](O)(c3ccccn3)C[C@](O)(c3ccccn3)[C@H]2C(=O)c2ccc(N(c3ccccc3)c3ccccc3)cc2)cc1', 522),
  ('Cc1ccc2nc3c(=O)[nH]c(=O)[nH]c3nc2c1', 426),
  ('CC1=[N+]2C(=C(c3c4ccccc4cc4ccccc34)c3ccc(C)n3[B-]2(F)F)C=C1', 524),
  ('Cc1cc(=O)[nH]c(=O)[nH]1', 308),
  ('Cc1cc2ccc(-c3cccc4cccc(-c5ccc6cc(C)c(=O)oc6c5)c34)cc2oc1=O', 420),
  ('CC(C)[Si]1(C(C)C)c2cc(C#N)ccc2-c2ccc(N(C)C)cc21', 464),
  ('CCCCC[n+]1ccc(/C=C/c2ccc(N(C)C)c3ccccc23)c2ccccc21', 720);
